Target: Cholinesterase (Homo sapiens)
Sequence (P06276 whole entry): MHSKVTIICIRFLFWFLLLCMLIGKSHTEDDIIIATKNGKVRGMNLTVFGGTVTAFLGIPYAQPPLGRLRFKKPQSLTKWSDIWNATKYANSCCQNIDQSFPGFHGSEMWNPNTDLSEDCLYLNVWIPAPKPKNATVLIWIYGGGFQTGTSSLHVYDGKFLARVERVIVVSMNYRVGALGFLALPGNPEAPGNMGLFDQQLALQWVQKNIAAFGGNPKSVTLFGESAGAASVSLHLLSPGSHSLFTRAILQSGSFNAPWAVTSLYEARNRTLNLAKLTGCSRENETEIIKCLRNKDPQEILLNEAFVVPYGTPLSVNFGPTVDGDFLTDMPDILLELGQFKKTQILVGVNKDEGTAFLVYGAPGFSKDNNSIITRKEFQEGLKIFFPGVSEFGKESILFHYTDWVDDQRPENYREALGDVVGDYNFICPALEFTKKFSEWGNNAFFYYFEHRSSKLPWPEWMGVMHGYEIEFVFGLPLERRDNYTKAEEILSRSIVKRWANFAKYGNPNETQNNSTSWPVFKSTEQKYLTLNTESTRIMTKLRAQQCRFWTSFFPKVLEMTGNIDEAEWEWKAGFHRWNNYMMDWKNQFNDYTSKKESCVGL
Assay: Time dependent inhibition of human BChE using butyrylthiocholine iodide as substrate preincubated for 5 mins followed by substrate addition and measured for 2 mins by spectrophotometry based Ellman's method
Settings: time 7.0 min
Calls of active or inactive are those of the source. No cut-off for these calls is given here.
Outcome codes: YES = active, NO = inactive

| GIVEN SMILES | ASSIGNED CLASS |
| --- | --- |
| CC(C)N(C(=O)Oc1ccc2c(CN(C)CCC3CCCCCC3)c[nH]c2c1)C(C)C | NO |
| CCN(C)C(=O)Oc1cccc2c(CN(C)CCC3CCCCCC3)c[nH]c12 | YES |
| CN(CCC1CCCCCC1)Cc1c[nH]c2c(OC(=O)N(C)C)cccc12 | YES |
| CC(C)N(C(=O)Oc1cccc2c(CN(C)CCC3CCCCCC3)c[nH]c12)C(C)C | NO |
| CN(CCC1CCCCCC1)Cc1c[nH]c2c(OC(=O)N(C)N(C)C)cccc12 | YES |
